# Test system: U-251
# Assay Explanation: NCI tumour cell line growth inhibition, 48 h
Calls of active or inactive are those of the source. Rule as the data show it: active = GI50 up to about 1.1 µM and inactive = higher.
Give one outcome, nothing more. List: 1 = active, -1 = inactive

Molecule	Assigned Category
Cc1occc(=O)c1O	-1
Cc1nc2c(n1-c1ccccc1)C(=O)c1ccccc1C2=O	-1
c1ccc2c(c1)Nc1nc3nonc3nc1N2	-1
C=CCN(C(=O)OC(C)(C)C)[C@H](C)C(=O)N[C@@H](C)C(=O)OC	-1
N=c1nc2n(cc1F)[C@@H]1O[C@H](CO)[C@@H](O)[C@@H]1O2	-1

**Q:** Fill in: this test's call for CC1(C)OC2C(O)CN3CCS[C@H]3C2O1 (some centres not stated) is ___
**A:** -1

**Q:** What do you get for Cc1c(CNc2ccc(C(=O)NC(CC(=O)O)C(=O)O)cc2)ccc2nc(N)nc(N)c12 (configuration not stated) ?
**A:** 1

* * *

# Test system: HCT-116
# Assay Explanation: NCI tumour cell line growth inhibition, 48 h
Active and inactive are the calls of the source. Cut-off read from the data, not from the text of the source: active = GI50 up to about 1.1 µM and inactive = higher.
Give one outcome, nothing more. List: YES (active), NO (inactive)

Record excerpt, results attached:
                                   compound  measured_on  assigned_category
0  CC(C)/C(Cl)=N/OC(=O)Nc1ccc(OC(F)(F)F)cc1      HCT-116                 NO
1  COc1ccc2ccccc2c1C1NC(=O)c2ccccc2N1 (stereo unspecified)      HCT-116                YES
2  Cc1ccccc1CN1CC2=C(CCN(Cc3ccccc3)C2=O)N2CCN=C12      HCT-116                 NO
3  c1ccc(C2Nc3ccccc3C3OCCCC23)cc1 (stereo unspecified)      HCT-116                 NO
4  C[C@@H](C(=O)O)N1C(c2ccco2)=C(/C(C=O)=C\c2ccco2)C(=O)/C1=C\c1ccco1      HCT-116                 NO
5   Cc1cc(S(=O)(=O)Nc2nc(N)n[nH]2)c(S)cc1Cl      HCT-116                 NO

**Q:** Fill in: this test's call for CC(=O)/C(=C\NC(=S)Nc1ccc(S(N)(=O)=O)cc1)C(=O)Nc1ccccc1C is ___
**A:** NO

**Q:** What do you get for CCOC(=O)/C(=C/c1ccc(C(F)(F)F)cc1)N(CC)CC ?
**A:** NO

**Q:** What do you get for Cc1nc2cc(/N=N/c3c(C)noc3C)ccc2[nH]1 ?
**A:** NO

**Q:** What do you get for O=S(=O)(c1ccccc1)C1(C2(S(=O)(=O)c3ccccc3)CCN=N2)CCN=N1 (stereo unspecified) ?
**A:** NO

**Q:** What do you get for C/C(=N\OCC(O)CNC(C)C)c1ccc2c(c1)NC(=O)CS2 (stereo unspecified) ?
**A:** NO

* * *

# Tested on: EKVX
# Assay Explanation: NCI tumour cell line growth inhibition, 48 h
Calls of active or inactive are those of the source. Rule as the data show it: active = GI50 up to about 1.1 µM and inactive = higher.
Endpoint Label: GI50

Previously resolved entries follow.
                                   compound             observed
0  COC(=O)CNCC1OC2OC(C)(C)OC2C1N=[N+]=[N-] (stereo unspecified)  > 100 µM (inactive)
1             Nc1nc(Cl)cc(NCC2(CO)CCCCC2)n1     67 µM (inactive)
2            Cn1c(NNc2ccccc2)cc(=O)[nH]c1=O  > 100 µM (inactive)
3       CCOC(=O)/C(=C/c1ccco1)P(=O)(OCC)OCC  > 100 µM (inactive)
4       O=c1c2cc([N+](=O)[O-])ccc2sc2ccsc12  > 100 µM (inactive)

**Q:** If you can, please state the reported GI50 value of CCOC(=O)NNC(=O)NCc1ccccc1CNC(=O)NNC(=O)OCC .
**A:** > 100 µM (inactive)

**Q:** What do you get for CCCCCCCCC/C=C1\CC(CO)(COC(=O)c2ccccc2)OC1=O (stereo unspecified) ?
**A:** 15.3 µM (inactive)

**Q:** What do you get for COc1ccc(C(=O)N=C2N(c3ccccc3)C(=N/c3ccccc3)/C(=N\c3ccccc3)N2c2ccccc2)cc1 ?
**A:** 48.8 µM (inactive)

**Q:** What do you get for CCOC(=O)/C(C(N)=O)=C(O)/C(O)=C(\Br)C(=O)c1ccccc1 ?
**A:** 23.9 µM (inactive)

**Q:** What do you get for O=C1c2c(n(Cc3ccccc3)c(=O)n2Cc2ccccc2)C(=O)N1Cc1ccccc1 ?
**A:** 66.8 µM (inactive)

**Q:** What do you get for C/C(=N\O)C1CC2C=C(C#N)C1N(Cc1ccccc1)C2 (stereo unspecified) ?
**A:** > 100 µM (inactive)

* * *

# System: HOP-62
# Assay Explanation: NCI tumour cell line growth inhibition, 48 h
Activity calls are given as the source filed them. No stated cut-off is given here; in the data, active = GI50 up to about 1.1 µM and inactive = higher.
Endpoint Label: GI50

**Q:** If you can, please state the reported GI50 value of COC(=O)CNCC1OC2OC(C)(C)OC2C1N=[N+]=[N-] (stereo unspecified) .
**A:** > 100 µM (inactive)

**Q:** What do you get for C[C@@H](C(=O)O)N1C(c2ccco2)=C(/C(C=O)=C\c2ccco2)C(=O)/C1=C\c1ccco1 ?
**A:** > 100 µM (inactive)

**Q:** What do you get for CCOC(=O)c1cc([N+](=O)[O-])c(Sc2ncnc3nc[nH]c23)c([N+](=O)[O-])c1 ?
**A:** 11.1 µM (inactive)

**Q:** What do you get for Cc1ccc(C2=NN(C)COC2C(F)(F)F)cc1 (stereo unspecified) ?
**A:** > 100 µM (inactive)

**Q:** What do you get for C#CCNC(=O)ON1C(=O)CCC1=O ?
**A:** > 100 µM (inactive)

* * *

# Tested on: PC-3
# Assay Explanation: NCI tumour cell line growth inhibition, 48 h
Active and inactive are the calls of the source. Cut-off read from the data, not from the text of the source: active = GI50 up to about 1.1 µM and inactive = higher.
Overview of reported GI50 across a group of compounds:

Previously resolved entries follow.
>>> print(df.to_string())
                                   compound             observed
0  CCOC(=O)NNC(=O)NCc1ccccc1CNC(=O)NNC(=O)OCC  > 100 µM (inactive)
1  O=S(=O)(O)c1ccc2c(/N=N/c3ccc(Sc4ccc(/N=N/c5c(O)ccc6cc(S(=O)(=O)O)ccc56)cc4)cc3)c(O)ccc2c1  > 100 µM (inactive)
2  COC(=O)C1CC2CC1C1C2SC(F)(F)C1(F)F (stereo not given)  > 100 µM (inactive)
3  O=c1oc2ccc3ccccc3c2cc1-c1nnc(-c2ccc([N+](=O)[O-])cc2)[nH]1  > 100 µM (inactive)
4  COc1ccc(C[C@@H]2OC3(C=CC(=O)CC3Sc3ccccc3)O[C@H]2Cc2ccc(OC)cc2)cc1 (stereo not given in full)   1.72 µM (inactive)
5  Cc1ccccc1CN1CC2=C(CCN(Cc3ccccc3)C2=O)N2CCN=C12   3.58 µM (inactive)
6                    CSC(=N/C=C/c1ccccc1)SC   64.3 µM (inactive)
7  COC1=C2CC(C)CC(OC)C(O)C(C)/C=C(\C)C(OC(N)=O)C(OC)/C=C\C=C(/C)C(=O)NC(=C(/C=N/N3CCCCC3)C1=O)C2=O (stereo not given)   15.3 µM (inactive)
8        CCc1nc(N)c2nc(-c3ccc(C#N)cc3)oc2n1  > 100 µM (inactive)

Shifting focus to the compound that follows.
**Q:** If you can, please state the reported GI50 value of CCOC(=O)n1ccc2c(C(=O)OC)c(C(=O)OC)cc(/C(=C/C(=O)OC)C(=O)OC)c21 .
**A:** > 100 µM (inactive)

* * *

# Tested on: SW-620
# Assay Explanation: NCI tumour cell line growth inhibition, 48 h
The source made the active and inactive calls. No stated cut-off is given here; in the data, active = GI50 up to about 1.1 µM and inactive = higher.
Overview of reported GI50 across a group of molecules:

**Q:** If you can, please state the reported GI50 value of COc1ccc2c(c1)CC[C@@H]1[C@@H]2CC[C@]2(C)C(=O)/C(=C/c3ccc(O)c(OC)c3)C[C@@H]12 .
**A:** 58.2 µM (inactive)

**Q:** What do you get for CC1=C2C(=O)O[C@@H](c3ccoc3)[C@]2(C)CCC1 ?
**A:** > 100 µM (inactive)

**Q:** What do you get for CC(C)(C)C(=O)C(C(c1ccccc1)N1CCOCC1)N1CCOCC1 (stereo not given) ?
**A:** > 100 µM (inactive)

**Q:** What do you get for Cc1cc(C)nc(NS(=O)(=O)c2ccc(NC(=O)c3cccc4c(Nc5ccc(S(=O)(=O)Nc6nc(C)cc(C)n6)cc5)c5ccc(Cl)cc5nc34)cc2)n1 ?
**A:** 54.1 µM (inactive)

**Q:** What do you get for OC1c2ccccc2C2(O)C1C(c1ccccc1)C(c1ccccc1)C2(O)c1ccccc1 (stereo not given) ?
**A:** 15.8 µM (inactive)

**Q:** What do you get for CCOC(=O)n1ccc2c(C(=O)OC)c(C(=O)OC)cc(/C(=C/C(=O)OC)C(=O)OC)c21 ?
**A:** > 100 µM (inactive)

**Q:** What do you get for O=C(OCCN=C1c2ccccc2CCc2ccccc21)c1ccccc1 ?
**A:** > 100 µM (inactive)

**Q:** What do you get for Cc1cccc(C)c1NC(=O)CCc1nnc(S)[nH]1 ?
**A:** > 100 µM (inactive)

**Q:** What do you get for c1ccc(C2Nc3ccccc3C3OCCCC23)cc1 (stereo not given) ?
**A:** 26 µM (inactive)

**Q:** What do you get for COc1cccc(C=C2N=C(C)N(n3c(-c4ccccc4)nc4ccccc4c3=O)C2=O)c1 ?
**A:** > 100 µM (inactive)

**Q:** What do you get for O=C(c1ccco1)c1ccccc1C(=O)c1ccco1 ?
**A:** > 100 µM (inactive)

Entry source: ChEMBL document CHEMBL1201862
